This collection of values is drawn from paper PMC7824081.

# Tested on: MDA-MB-231 TNBC cells
# procedure details: SRB cell proliferation assay, MDA-MB-231
# Type: cell-based, human
# cond: ratio of IC50 values between MCF10A and MDA-MB-231 cells
observed property: Therapeutic Index
Lab note: record just the number, no unit beside it.

Please review the following examples before continuing.
{"compound": "O=C(NCCSSCCNC(=O)/C(Cc1ccc(O)c(Br)c1)=N/O)/C(Cc1ccc(O)c(Br)c1)=N/O [Psammaplin A (PsA), Psammaplin A]", "observed property": "Therapeutic Index", "readout value": 11.60}
{"compound": "O=C(NCC[Se]Sc1ccccc1)/C(Cc1ccc(O)c(Br)c1)=N/O [9a]", "observed property": "Therapeutic Index", "readout value": 82.10}
{"compound": "O=C(NCC[Se]Sc1ccccc1)/C(Cc1ccc(O)c(F)c1)=N/O [9n]", "observed property": "Therapeutic Index", "readout value": 80.48}

# evaluate next
CC(C)(C)c1ccc(C/C(=N\O)C(=O)NCC[Se]Sc2ccccc2)cc1 [9l] has a reported Therapeutic Index of 161.63
